System: 242566-281-R-J2-PDC complex spheroid viability;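 also: spheroids exposed to compound for 7 days before readout; 100% = DMSO vehicle control wells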
assayInfo: Anticancer human tumor 242566-281-R-J2-PDC patient-derived pancreatic carcinoma cell line growth inhibition [RAS]; active = viability on the fitted dose curve at most 10% of control; inactive = the rest
testSettings: second compound 0.0949 µM; first compound 0.3 µM
Tick one outcome: yes (1) (active), no (0) (inactive)

{"compound": "CC1(C)CCC(Nc2ncc(C(F)(F)F)c(-c3c[nH]c4c(P(C)(C)=O)c(C#N)ccc34)n2)CN1 (centres undefined) + CCn1c(-c2cc(N3CCN(C)CC3)cnc2C(C)OC)c2c3cc(ccc31)-c1csc(n1)CC(NC(=O)C1CC1C)C(=O)N1CCCC(N1)C(=O)OCC(C)(C)C2", "assayTarget": "242566-281-R-J2-PDC complex spheroid viability", "class": "no (0)"}
{"compound": "CC1(C)CCC(Nc2ncc(C(F)(F)F)c(-c3c[nH]c4c(P(C)(C)=O)c(C#N)ccc34)n2)CN1 (centres undefined) + CCn1c(-c2cccnc2C(C)OC)c2c3cc(ccc31)N1CCOC(CC(NC(=O)C(C(C)C)N(C)C(=O)C3(F)CCN(C(=O)C#CC(C)(C)N(C)C)CC3)C(=O)N3CCCC(N3)C(=O)OCC(C)(C)C2)C1", "assayTarget": "242566-281-R-J2-PDC complex spheroid viability", "class": "no (0)"}
{"compound": "CCc1c2c(nc3ccc(O)cc13)-c1cc3c(c(=O)n1C2)COC(=O)[C@]3(O)CC + CCn1c(-c2cccnc2C(C)OC)c2c3cc(ccc31)N1CCOC(CC(NC(=O)C(C(C)C)N(C)C(=O)C3(F)CCN(C(=O)C#CC(C)(C)N(C)C)CC3)C(=O)N3CCCC(N3)C(=O)OCC(C)(C)C2)C1", "assayTarget": "242566-281-R-J2-PDC complex spheroid viability", "class": "yes (1)"}

Turning now to a further record.
Enquiry: What did the test return for CCc1c2c(nc3ccc(O)cc13)-c1cc3c(c(=O)n1C2)COC(=O)[C@]3(O)CC + CCn1c(-c2cc(N3CCN(C)CC3)cnc2C(C)OC)c2c3cc(ccc31)-c1csc(n1)CC(NC(=O)C1CC1C)C(=O)N1CCCC(N1)C(=O)OCC(C)(C)C2 ?
Return: yes (1)
